Molecular target: H1047R PIK3CA enzyme (Homo sapiens, UniProt P42336, H1047R)
Sequence (P42336 whole entry H1047R): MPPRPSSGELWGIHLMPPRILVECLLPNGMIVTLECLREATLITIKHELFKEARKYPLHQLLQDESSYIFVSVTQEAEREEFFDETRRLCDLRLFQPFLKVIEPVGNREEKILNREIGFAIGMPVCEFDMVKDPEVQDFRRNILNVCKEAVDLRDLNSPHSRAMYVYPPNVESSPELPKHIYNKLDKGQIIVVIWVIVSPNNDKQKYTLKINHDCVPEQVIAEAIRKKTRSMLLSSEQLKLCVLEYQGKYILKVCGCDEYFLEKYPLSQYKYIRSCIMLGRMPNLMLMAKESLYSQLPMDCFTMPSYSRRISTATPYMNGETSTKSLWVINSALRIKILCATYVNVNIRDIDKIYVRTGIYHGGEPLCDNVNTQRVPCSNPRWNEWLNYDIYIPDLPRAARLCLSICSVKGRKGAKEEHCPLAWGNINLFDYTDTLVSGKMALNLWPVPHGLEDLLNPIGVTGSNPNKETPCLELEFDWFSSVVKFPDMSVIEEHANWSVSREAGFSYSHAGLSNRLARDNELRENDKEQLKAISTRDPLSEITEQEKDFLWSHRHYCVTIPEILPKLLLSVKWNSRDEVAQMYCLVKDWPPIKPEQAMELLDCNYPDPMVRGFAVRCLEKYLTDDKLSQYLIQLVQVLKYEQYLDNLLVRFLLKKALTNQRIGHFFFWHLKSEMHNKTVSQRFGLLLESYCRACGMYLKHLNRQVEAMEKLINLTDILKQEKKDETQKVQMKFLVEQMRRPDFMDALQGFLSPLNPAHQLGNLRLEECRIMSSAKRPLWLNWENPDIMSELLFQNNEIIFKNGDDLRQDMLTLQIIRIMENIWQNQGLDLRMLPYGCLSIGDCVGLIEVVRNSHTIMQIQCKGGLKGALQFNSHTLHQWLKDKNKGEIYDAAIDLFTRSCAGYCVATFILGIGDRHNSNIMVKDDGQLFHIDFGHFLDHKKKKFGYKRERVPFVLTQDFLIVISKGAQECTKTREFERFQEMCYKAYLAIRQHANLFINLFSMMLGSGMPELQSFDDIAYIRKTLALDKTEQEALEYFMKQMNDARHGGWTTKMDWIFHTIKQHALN
Sequence (P27986 whole entry partner): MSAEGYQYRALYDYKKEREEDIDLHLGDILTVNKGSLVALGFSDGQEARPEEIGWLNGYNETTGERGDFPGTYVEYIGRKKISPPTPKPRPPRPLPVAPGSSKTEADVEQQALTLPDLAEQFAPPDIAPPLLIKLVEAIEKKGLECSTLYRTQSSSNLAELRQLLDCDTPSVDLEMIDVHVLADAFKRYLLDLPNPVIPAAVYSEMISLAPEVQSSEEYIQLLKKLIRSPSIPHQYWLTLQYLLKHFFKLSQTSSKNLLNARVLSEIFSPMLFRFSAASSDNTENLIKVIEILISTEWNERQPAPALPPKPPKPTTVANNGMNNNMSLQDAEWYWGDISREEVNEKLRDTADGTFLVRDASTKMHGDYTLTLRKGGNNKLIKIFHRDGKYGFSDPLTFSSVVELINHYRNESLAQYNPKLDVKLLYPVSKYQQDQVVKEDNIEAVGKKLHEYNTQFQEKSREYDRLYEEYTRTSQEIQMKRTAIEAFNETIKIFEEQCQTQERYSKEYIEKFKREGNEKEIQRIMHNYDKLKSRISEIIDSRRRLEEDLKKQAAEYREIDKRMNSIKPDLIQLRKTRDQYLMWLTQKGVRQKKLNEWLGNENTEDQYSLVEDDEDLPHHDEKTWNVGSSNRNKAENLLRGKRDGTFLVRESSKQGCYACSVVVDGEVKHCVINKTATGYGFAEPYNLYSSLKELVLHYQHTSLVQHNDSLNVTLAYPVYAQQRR
Test: ADP-Glo Biochemical PIK3CA Kinase Assay
READOUT: IC50

Looking up O=C(Nc1cc(Br)cc2c1C(c1cc(F)ccc1Cl)NC2=O)c1cc(O)cc(Cl)c1 (centres unmarked) , I see its IC50 listed as 0.1 to 0.5 µM

The compound identified as Cc1ccccc1C1NC(=O)c2cccc(NC(=O)c3cnc(OCC(C)C)c(F)c3)c21 (centres unmarked) registered its IC50 at 10 to 100 µM

For reference, reported IC50 for O=C(Nc1cccc2c1[C@H](CC1CCCC1)NC2=O)c1cc(F)cc(C(F)(F)F)c1 stands at 1 to 10 µM

Item: O=C1N[C@@H](c2cc(F)ccc2Cl)c2c(NC(=O)[C@H]3C[C@H](O)C[C@@H](C(F)(F)F)C3)cccc21 (single isomer, unassigned) | IC50: 1 to 10 µM

Lab book: IC50 of NCCc1cc(NC(=O)N2C[C@@](O)(C(F)(F)F)c3cc(F)ccc32)c2c(c1)C(=O)N[C@H]2c1cc(F)ccc1Cl (single isomer, unassigned) noted as ≤ 0.1 µM

Lab note: measured IC50 of O=C(Nc1cc(Br)c(Cl)c2c1C(c1cc(F)ccc1Cl)NC2=O)c1cc(F)cc(C(F)(F)F)c1 (centres unmarked) was ≤ 0.1 µM

Note to self: IC50 recorded for O=C1N[C@@H](c2ccccc2Cl)c2c(NC(=O)N3C[C@@](O)(C(F)(F)F)c4cc(F)ccc43)cccc21 (single isomer, unassigned) was 10 to 100 µM

get_value(item= C[C@H](c1nn[nH]c1C(=O)Nc1cccc2c1[C@H](c1cc(F)ccc1Cl)NC2=O)C(F)(F)F (single isomer, unassigned) , readout=IC50) returns 10 to 100 µM

Looking up O=C1N[C@@H](c2cc(F)ccc2Cl)c2c(NC(=O)N3C[C@](O)(C(F)(F)F)c4ccccc43)cc(Cl)cc21 (single isomer, unassigned) , I found its IC50 recorded as 1 to 10 µM

In plain terms, O=C(Nc1cncc2c1C(c1cc(F)ccc1Cl)NC2=O)c1cc(F)cc(C(F)(F)F)c1 (centres unmarked) has a documented IC50 of ≤ 0.1 µM

Per the records, this compound ( Cc1ccccc1C1NC(=O)c2cccc(NC(=O)c3ncsc3Br)c21 (centres unmarked) ) has IC50 equal to 1 to 10 µM

Lookup result for O=C(Nc1cc(C#Cc2ccccn2)cc2c1C(c1cc(F)ccc1Cl)NC2=O)c1cc(F)cc(C(F)(F)F)c1 (centres unmarked) ; measured IC50: ≤ 0.1 µM

Please fill in: IC50 reported for O=C1N[C@H](c2cc(F)ccc2Cl)c2c(NC(=O)N3C[C@@](O)(C(F)(F)F)c4cc(F)ccc43)cc(F)cc21 (single isomer, unassigned) = 1 to 10 µM

Entry Cc1ccc(C(=O)Nc2cc(-c3ccc4ncnn4c3)cc3c2[C@@H](c2cc(F)ccc2Cl)NC3=O)cc1C(F)(F)F (stereo in doubt) , IC50 reported as 10 to 100 µM

Entry O=C(Nc1cc(Nc2nc3ccccc3[nH]2)cc2c1C(c1cc(F)ccc1Cl)NC2=O)c1cc(F)cc(C(F)(F)F)c1 (centres unmarked) , IC50 reported as ≤ 0.1 µM

Measured IC50, CNC(=O)c1cc(NC(=O)c2nsc3ccccc23)c2c(c1)C(=O)N[C@H]2c1ccccc1C : ≤ 0.1 µM

Form: compound = O=C(Nc1cc(-c2cn[nH]c2)nc2c1[C@@H](c1cc(F)ccc1Cl)NC2=O)c1cc(F)cc(C(F)(F)F)c1 ; IC50 = 1 to 10 µM

IC50 measured on O=C1NC(c2cc(F)ccc2Cl)c2c(NC(=O)N3CCCCC3c3ccccc3)cc(Br)cc21 (centres unmarked) = 1 to 10 µM

So, O=C1NC(CO)(c2cccc(F)c2)c2c1cccc2-c1nc2cc(C(F)(F)F)cc(F)c2[nH]1 (centres unmarked) ? Its IC50 was 1 to 10 µM

Looking up O=C(Nc1cc(-c2ccc3nccn3c2)cc2c1C(c1cc(F)ccc1Cl)NC2=O)c1cc(F)cc(C(F)(F)F)c1 (centres unmarked) , I see its IC50 listed as ≤ 0.1 µM

For reference, reported IC50 for Nc1csnc1C(=O)Nc1cc(Br)cc2c1C(c1cc(F)ccc1Cl)NC2=O (centres unmarked) stands at 10 to 100 µM

Entry CC(=O)NCc1cc(NC(=O)c2cc(F)cc(C(F)(F)F)c2)c2c(c1)C(=O)NC2c1cc(F)ccc1Cl (centres unmarked) ; IC50 = 0.1 to 0.5 µM

Value of measured IC50 for the entry O=C1N[C@H](c2cc(F)ccc2Cl)c2c(NC(=O)N3C[C@](O)(C(F)(F)F)c4cc(F)ccc43)cc(F)cc21 (single isomer, unassigned) : ≤ 0.1 µM

Given item O=C1NC(c2cc(F)ccc2Cl)c2c(NC(=O)n3nc(O)c4ccccc43)cccc21 (centres unmarked) , the value recorded as its IC50 is 1 to 10 µM

Record CN1C[C@H](COc2cc(NC(=O)c3cc(F)cc(C(F)(F)F)c3)c3c(c2)C(=O)N[C@@H]3c2cc(F)ccc2Cl)CC1=O (single isomer, unassigned) . Reported IC50: ≤ 0.1 µM

Note to self: IC50 recorded for Cc1ccccc1C1NC(=O)c2cc(NS(C)(=O)=O)cc(NC(=O)c3cc(F)cc(C(F)(F)F)c3)c21 (centres unmarked) was 0.1 to 0.5 µM
